- Assay System: TRIM24(Bromo.) (Homo sapiens (Human), UniProt O15164)
- Sequence (O15164 899-1004): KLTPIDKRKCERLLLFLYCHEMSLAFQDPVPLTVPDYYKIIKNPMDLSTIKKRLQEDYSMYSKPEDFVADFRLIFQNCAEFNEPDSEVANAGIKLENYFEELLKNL
- Test Details: BROMOscan
Measured Property: Kd (µM)
Give bare numbers, in µM.

Look up Kd for this molecule: CCS(=O)(=O)Nc1cc(-c2cn(C)c3c(=O)[nH]ccc23)cc2c1ccn2C(C)(c1ccccn1)c1ccccn1
4.4

----------
- Assay System: BRDT(1, 2) (Homo sapiens (Human), UniProt Q58F21)
- Test Details: BROMOscan
Measured Property: Kd (nM)
Numbers only, in nM.

Look up Kd for this compound: CCS(=O)(=O)Nc1cc(-c2cn(C)c3c(=O)[nH]ccc23)cc2c1ccn2C(C)(c1ccccn1)c1ccccn1
0.23

----------
- Assay System: BRD4 bromodomain 2 (Homo sapiens (Human))
- Test Details: TR-FRET BRD4 binding assay, bromodomain 2
- Reported Conditions: read-out: TR-FRET BRD4-BD2 Ki
Measured Property: Ki

Example results:
1) Cn1cc(-c2cc(NS(C)(=O)=O)c3cnn(Cc4ccc(F)cc4)c3c2)c2ccnc(O)c21 = < 0.1 µM
2) CCS(=O)(=O)Nc1cc(-c2cn(C)c3c(O)nccc23)cc2c1cnn2Cc1ccc(F)cc1 = < 0.1 µM
3) Cn1cc(-c2cc(NS(C)(=O)=O)c3ccn(Cc4ccc(F)cc4)c3c2)c2ccnc(O)c21 = < 0.1 µM

For each entry beneath this line, provide reported Ki.
1. CC(=O)Nc1cc(-c2cn(C)c3c(=O)[nH]ccc23)cc2c1ccn2C(C)(c1ccccn1)c1ccccn1
2. Cn1cc(-c2cc(C(C)(C)O)c3ccn(C(C)(c4ccccn4)c4ccccn4)c3c2)c2cc[nH]c(=O)c21

< 0.01 µM
< 0.01 µM

----------
- Assay System: BRD9 (Homo sapiens (Human), UniProt Q9H8M2)
- Sequence (Q9H8M2 whole entry): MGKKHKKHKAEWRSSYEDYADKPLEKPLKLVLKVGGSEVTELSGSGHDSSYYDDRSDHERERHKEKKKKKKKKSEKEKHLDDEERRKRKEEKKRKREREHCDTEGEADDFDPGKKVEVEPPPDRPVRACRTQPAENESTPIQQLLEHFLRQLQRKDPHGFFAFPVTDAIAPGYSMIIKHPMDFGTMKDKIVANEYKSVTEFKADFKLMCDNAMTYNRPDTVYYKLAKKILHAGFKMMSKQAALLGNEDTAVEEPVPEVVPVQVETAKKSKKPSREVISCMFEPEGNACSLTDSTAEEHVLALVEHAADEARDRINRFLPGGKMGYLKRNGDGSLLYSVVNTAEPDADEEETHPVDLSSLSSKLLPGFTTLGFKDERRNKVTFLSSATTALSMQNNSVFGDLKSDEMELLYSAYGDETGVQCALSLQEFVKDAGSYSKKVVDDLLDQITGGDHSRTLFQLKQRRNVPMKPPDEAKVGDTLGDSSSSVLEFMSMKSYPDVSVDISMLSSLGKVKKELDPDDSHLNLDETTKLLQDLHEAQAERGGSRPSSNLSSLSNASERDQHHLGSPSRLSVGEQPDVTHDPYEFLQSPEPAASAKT
- Test Details: BROMOscan
Measured Property: pKd
Answers are plain numbers, as −log10 of the molar value.

Look up pKd for this compound: CCS(=O)(=O)Nc1cc(-c2cn(C)c3c(=O)[nH]ccc23)cc2c1ccn2C(C)(c1ccccn1)c1ccccn1 [Compound 70]
5.46

----------
- Assay System: UniProtKB Q8IZX4
- Sequence (Q8IZX4 1517-1626): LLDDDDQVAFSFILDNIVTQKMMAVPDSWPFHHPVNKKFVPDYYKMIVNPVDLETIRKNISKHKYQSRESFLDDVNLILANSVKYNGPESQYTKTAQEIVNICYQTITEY
- Test Details: BROMOscan
- Assay type: binding
Measured Property: pKd
One number for each entry, as −log10 of the molar value.

Look up pKd for this compound: CCS(=O)(=O)Nc1cc(-c2cn(C)c3c(=O)[nH]ccc23)cc2c1ccn2C(C)(c1ccccn1)c1ccccn1 [Compound 70]
7.36

----------
- Assay System: CREBBP (Homo sapiens (Human))
- Sequence (Q92793 whole entry): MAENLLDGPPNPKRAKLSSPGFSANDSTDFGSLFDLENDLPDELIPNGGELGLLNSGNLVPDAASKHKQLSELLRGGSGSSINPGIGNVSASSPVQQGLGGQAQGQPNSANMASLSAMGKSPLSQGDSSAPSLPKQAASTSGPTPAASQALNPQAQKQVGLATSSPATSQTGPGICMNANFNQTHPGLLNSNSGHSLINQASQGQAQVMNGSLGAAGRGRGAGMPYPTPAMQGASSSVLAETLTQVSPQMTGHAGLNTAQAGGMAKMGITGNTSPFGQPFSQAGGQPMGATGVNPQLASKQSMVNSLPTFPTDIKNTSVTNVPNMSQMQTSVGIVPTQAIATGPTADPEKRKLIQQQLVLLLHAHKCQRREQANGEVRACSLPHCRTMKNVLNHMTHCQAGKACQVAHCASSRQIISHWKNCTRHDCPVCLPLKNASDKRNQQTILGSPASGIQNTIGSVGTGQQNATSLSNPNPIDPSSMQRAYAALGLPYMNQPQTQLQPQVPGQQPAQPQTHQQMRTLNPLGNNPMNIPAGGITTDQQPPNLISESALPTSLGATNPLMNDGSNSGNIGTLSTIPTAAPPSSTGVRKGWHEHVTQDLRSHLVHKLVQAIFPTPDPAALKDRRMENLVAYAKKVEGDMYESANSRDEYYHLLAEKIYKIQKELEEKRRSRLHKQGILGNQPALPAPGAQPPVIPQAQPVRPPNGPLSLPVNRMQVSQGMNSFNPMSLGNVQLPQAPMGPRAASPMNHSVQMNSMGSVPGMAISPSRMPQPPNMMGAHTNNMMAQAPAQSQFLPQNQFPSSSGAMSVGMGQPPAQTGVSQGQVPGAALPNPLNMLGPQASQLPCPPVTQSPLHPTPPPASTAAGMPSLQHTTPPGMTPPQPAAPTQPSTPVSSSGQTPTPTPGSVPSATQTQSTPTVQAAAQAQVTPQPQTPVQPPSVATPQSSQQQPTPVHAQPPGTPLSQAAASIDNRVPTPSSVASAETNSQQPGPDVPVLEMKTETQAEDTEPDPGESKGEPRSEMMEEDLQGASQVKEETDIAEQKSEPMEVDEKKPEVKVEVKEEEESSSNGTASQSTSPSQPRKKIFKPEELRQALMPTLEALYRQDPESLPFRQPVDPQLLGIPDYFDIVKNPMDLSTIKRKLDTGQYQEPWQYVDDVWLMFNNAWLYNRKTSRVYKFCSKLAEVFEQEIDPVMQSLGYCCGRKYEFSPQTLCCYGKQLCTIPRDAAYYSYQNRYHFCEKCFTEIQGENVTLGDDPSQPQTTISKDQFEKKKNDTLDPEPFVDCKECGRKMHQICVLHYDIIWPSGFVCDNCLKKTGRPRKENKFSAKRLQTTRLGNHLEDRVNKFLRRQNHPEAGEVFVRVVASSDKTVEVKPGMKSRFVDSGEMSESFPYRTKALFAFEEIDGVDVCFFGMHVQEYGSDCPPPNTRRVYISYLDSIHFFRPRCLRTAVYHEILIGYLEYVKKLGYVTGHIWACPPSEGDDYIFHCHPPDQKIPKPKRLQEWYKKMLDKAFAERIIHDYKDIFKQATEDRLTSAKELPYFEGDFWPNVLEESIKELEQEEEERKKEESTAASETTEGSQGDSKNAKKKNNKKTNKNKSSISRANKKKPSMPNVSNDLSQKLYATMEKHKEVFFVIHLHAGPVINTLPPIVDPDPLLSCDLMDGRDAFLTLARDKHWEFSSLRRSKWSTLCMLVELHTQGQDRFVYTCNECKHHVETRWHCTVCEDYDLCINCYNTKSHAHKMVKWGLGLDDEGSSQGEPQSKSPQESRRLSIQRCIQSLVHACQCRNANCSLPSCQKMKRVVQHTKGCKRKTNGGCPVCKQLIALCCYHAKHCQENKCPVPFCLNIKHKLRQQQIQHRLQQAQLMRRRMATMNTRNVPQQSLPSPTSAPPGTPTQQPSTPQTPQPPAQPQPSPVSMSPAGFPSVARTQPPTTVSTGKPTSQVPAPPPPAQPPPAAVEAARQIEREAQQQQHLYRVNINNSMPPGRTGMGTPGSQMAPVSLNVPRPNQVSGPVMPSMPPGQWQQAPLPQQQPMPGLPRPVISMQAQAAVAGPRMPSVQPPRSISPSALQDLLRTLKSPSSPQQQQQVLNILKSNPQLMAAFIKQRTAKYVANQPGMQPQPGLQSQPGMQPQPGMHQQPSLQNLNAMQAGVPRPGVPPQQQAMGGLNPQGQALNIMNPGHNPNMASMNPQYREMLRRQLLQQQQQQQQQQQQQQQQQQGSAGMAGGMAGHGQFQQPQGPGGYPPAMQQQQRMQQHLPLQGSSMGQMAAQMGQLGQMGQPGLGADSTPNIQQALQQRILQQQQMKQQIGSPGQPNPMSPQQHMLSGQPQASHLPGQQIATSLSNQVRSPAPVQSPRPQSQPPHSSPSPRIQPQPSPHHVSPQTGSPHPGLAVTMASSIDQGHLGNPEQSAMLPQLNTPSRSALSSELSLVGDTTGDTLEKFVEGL
- Test Details: BROMOscan
Measured Property: pKd
Answers are plain numbers, as −log10 of the molar value.

Look up pKd for this molecule: CCS(=O)(=O)Nc1cc(-c2cn(C)c3c(=O)[nH]ccc23)cc2c1ccn2C(C)(c1ccccn1)c1ccccn1
6.96

----------
- Assay System: UniProt:Q9H0E9
- Sequence (Q9H0E9 706-811): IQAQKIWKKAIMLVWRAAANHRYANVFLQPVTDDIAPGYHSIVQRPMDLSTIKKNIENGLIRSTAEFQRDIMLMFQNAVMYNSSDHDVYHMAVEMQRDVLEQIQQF
- Test Details: BROMOscan
Measured Property: pKd
Numbers only, as −log10 of the molar value.

Look up pKd for this compound: CCS(=O)(=O)Nc1cc(-c2cn(C)c3c(=O)[nH]ccc23)cc2c1ccn2C(C)(c1ccccn1)c1ccccn1 [Compound 70]
5.31

----------
- Assay System: BRD1 (Homo sapiens (Human))
- Sequence (O95696 whole entry): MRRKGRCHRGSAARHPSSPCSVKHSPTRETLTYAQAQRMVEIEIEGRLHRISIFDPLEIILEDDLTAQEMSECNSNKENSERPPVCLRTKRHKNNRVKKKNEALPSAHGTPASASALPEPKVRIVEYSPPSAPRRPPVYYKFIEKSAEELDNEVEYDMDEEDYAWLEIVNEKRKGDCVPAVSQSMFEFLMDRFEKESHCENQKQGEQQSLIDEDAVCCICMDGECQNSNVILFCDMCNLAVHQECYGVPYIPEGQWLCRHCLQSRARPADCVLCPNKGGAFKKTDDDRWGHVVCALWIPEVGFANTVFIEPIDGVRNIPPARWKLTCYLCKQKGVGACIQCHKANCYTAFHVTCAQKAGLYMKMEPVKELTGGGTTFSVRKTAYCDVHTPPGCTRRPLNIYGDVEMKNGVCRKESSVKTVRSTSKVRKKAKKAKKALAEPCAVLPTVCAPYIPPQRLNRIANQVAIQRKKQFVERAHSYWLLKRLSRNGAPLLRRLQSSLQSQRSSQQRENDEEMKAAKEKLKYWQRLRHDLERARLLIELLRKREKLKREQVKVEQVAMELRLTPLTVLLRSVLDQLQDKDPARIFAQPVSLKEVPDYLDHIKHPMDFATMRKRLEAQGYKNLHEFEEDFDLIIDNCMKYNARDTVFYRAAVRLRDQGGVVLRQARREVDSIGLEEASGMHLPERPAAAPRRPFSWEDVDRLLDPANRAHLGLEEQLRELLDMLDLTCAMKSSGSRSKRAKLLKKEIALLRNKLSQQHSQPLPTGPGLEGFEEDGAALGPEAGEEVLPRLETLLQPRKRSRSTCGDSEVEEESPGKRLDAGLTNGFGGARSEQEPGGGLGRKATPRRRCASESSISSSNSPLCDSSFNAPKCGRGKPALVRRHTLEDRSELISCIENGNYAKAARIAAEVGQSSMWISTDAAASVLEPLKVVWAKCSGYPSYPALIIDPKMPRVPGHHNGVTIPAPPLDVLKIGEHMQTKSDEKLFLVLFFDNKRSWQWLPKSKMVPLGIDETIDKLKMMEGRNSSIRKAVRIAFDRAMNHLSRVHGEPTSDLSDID
- Test Details: BROMOscan
Measured Property: pKd
One number for each entry, as −log10 of the molar value.

Look up pKd for this compound: CCS(=O)(=O)Nc1cc(-c2cn(C)c3c(=O)[nH]ccc23)cc2c1ccn2C(C)(c1ccccn1)c1ccccn1
5.11
